Just for reference, ChEMBL document CHEMBL3988442 is where these values come from.

# assay_notes: In vitro enzyme assay to detect hydrolysis of chlorophenol red-beta-D-[…] directly proportional to the number of Toxoplasma stably expressing beta-galactosidase
# Assay type: functional, organism-based, Toxoplasma gondii
# Parameters: scale not given: in the data most compounds retested in dose-response had high values
# recorded_conditions: 50 µM
Screen size: about 85,000 compounds; about 440 (0.52%) showed an effect of 50% or more. The sample as a whole holds a higher share of strong results than the screen did.
Each entry below carries its recorded Percent Effect.
measurement_type: Percent Effect

compound: Cc1cc(N2CCOC(CN(C)CC(N)=O)C2)ccn1 (centres undefined)
observed_measurement: 2.869%
//
compound: CCC(N)c1ccccc1OCC(=O)N(C)C (centres undefined)
observed_measurement: -2.206%
//
compound: CN(C)S(=O)(=O)N1CCCC1c1ccsc1 (centres undefined)
observed_measurement: 2.745%
//
compound: COCCNC(=O)CCC1CCN(CCCSC)CC1
observed_measurement: 11.51%
//
compound: CNCCCOC(C)C
observed_measurement: -2.494%
//
compound: CC(=O)c1sc(NCCc2ccccn2)nc1C
observed_measurement: -25.25%
//
compound: CCC(C)NC(=O)c1cnn(-c2ccccc2)c1 (centres undefined)
observed_measurement: -7.328%
//
compound: COC1CCN(CC(=O)Nc2ccc(C(N)=O)cc2)C1 (centres undefined)
observed_measurement: -13.26%
//
compound: CCCNC(=O)C1=NN(C)C(=O)CC1
observed_measurement: -13.89%
//
compound: CN(C)S(=O)(=O)CCNC1CCCNC1 (centres undefined)
observed_measurement: 23.13%
//
compound: CCc1cnc(CNC(=O)NCc2cnn(C)c2)s1
observed_measurement: -4.497%
//
compound: CCc1cc(N2CCCC(CN)C2)n2nccc2n1 (centres undefined)
observed_measurement: 8.07%
//
compound: CC(C)(C)C(=O)CCN1CCCCC1
observed_measurement: 28.4%
//
compound: O=C(CCN1C(=O)CCC1=O)OCCc1cccs1
observed_measurement: -8.658%

---

# assay_notes: In vitro enzyme assay to detect hydrolysis of chlorophenol red-beta-D-[…] directly proportional to the number of Toxoplasma stably expressing beta-galactosidase
# Type: functional, organism-based, Toxoplasma gondii
# Parameters: scale not given: in the data most compounds retested in dose-response had high values
# recorded_conditions: 10 µM
Out of some 85,000 compounds screened, about 440 (0.52%) showed an effect of 50% or more. Only a selection was taken, and strong results are over-represented in it overall.

compound: CN(Cc1cnccn1)C(=O)c1ccc(CSc2nnc[nH]2)o1
unit_tag: %
Percent Effect: -8.183

compound: N#CCCN(CCC#N)Cc1ccc(Br)c2cccnc12
unit_tag: %
Percent Effect: 11.15

compound: c1cc(-c2cnccn2)cc(-c2ccn(CCCN3CCCCC3)n2)c1
unit_tag: %
Percent Effect: -3.188

compound: c1cnc(-c2nn3c(CN4CCCCCC4)nnc3s2)cn1
unit_tag: %
Percent Effect: 65.52

compound: CCNc1ncc2c(n1)CN(c1ccc(OC(F)(F)F)cc1)C2=O
unit_tag: %
Percent Effect: 64.71

compound: O=c1cc(-c2cc(O)cc(CCC3CCCCN3)c2)cc[nH]1 (stereo not given)
unit_tag: %
Percent Effect: 0.1729

compound: CC(Nc1cccc2c1OCCO2)C(=O)Nc1ccc(Cl)cc1 (stereo not given)
unit_tag: %
Percent Effect: 6.519

compound: CCN(CCO)Cc1ccc(Br)c2cccnc12
unit_tag: %
Percent Effect: 72.7

compound: O=C(NCCn1cnc(C2CCCC2)cc1=O)NCc1cccs1
unit_tag: %
Percent Effect: 56.76

compound: c1cnc(-c2nn3c(CN4CCCCC4)nnc3s2)cn1
unit_tag: %
Percent Effect: 70.51

compound: CN(Cc1ccccc1)C(=O)CN1CCCC(Cn2cncn2)C1 (stereo not given)
unit_tag: %
Percent Effect: -36.27

compound: O=C(c1cnccn1)N1CCc2ncc(CN3CCOCC3)n2CC1
unit_tag: %
Percent Effect: -7.352

compound: CCCc1nc2c(c(C)c(C)n2Cc2ccncc2)c(N)c1CC
unit_tag: %
Percent Effect: -0.599

compound: COc1cccc(CNCC2CN(C)CCO2)c1 (stereo not given)
unit_tag: %
Percent Effect: -20.59

compound: CNc1ncc2c(n1)CN(CCc1ccc(Cl)cc1)C2=O
unit_tag: %
Percent Effect: -35.33

compound: Oc1cc(CCC2CCCCN2)cc(-c2ccncc2)c1 (stereo not given)
unit_tag: %
Percent Effect: -0.7663

compound: CS(=O)(=O)c1ccc(-c2cc(O)cc(CCC3CCCCN3)c2)cc1 (stereo not given)
unit_tag: %
Percent Effect: 50.66

compound: CCNc1ncc2c(n1)CN(c1ccc(Cl)cc1)C2=O
unit_tag: %
Percent Effect: 65.79

compound: CCNc1ncc2c(n1)CN(c1ccc(C)c(C)c1)C2=O
unit_tag: %
Percent Effect: 51.11

compound: OCCN(CCO)Cc1ccc(Br)c2cccnc12
unit_tag: %
Percent Effect: 9.5

compound: CC(O)CN1CCN(Cc2cccc(C(=O)N(C)C)c2)CC1 (stereo not given)
unit_tag: %
Percent Effect: 5.816

compound: c1ccc(-c2nn3c(CN4CCOCC4)nnc3s2)nc1
unit_tag: %
Percent Effect: 71.31

compound: CC(Nc1cccc2c1OCCO2)C(=O)Nc1ccc(S(N)(=O)=O)cc1 (stereo not given)
unit_tag: %
Percent Effect: 5.712

compound: CC(C)NC(=O)NCCn1cnc(C2CCCC2)cc1=O
unit_tag: %
Percent Effect: 7.593

compound: CN(Cc1cnn(C)c1)C(=O)CN1CCCC(Cn2cncn2)C1 (stereo not given)
unit_tag: %
Percent Effect: 96.23

---

Property: Percent Effect; scope: individual compounds
# assay_notes: In vitro enzyme assay to detect hydrolysis of chlorophenol red-beta-D-[…] directly proportional to the number of Toxoplasma stably expressing beta-galactosidase
# Type: functional, organism-based, Toxoplasma gondii
# Set-up: scale not given: in the data most compounds retested in dose-response had high values
# recorded_conditions: 10 µM
Among all 85,000 compounds or so, about 440 (0.52%) showed an effect of 50% or more. The sample as a whole holds a higher share of strong results than the screen did.

cpd_smiles: Cc1ccc(C(=O)Nc2nc(C)no2)cc1
unit_tag: %
Percent Effect: 2.71
--
cpd_smiles: Cc1noc(NC(=O)c2ccc(OC(F)(F)F)cc2)n1
unit_tag: %
Percent Effect: 62.71
--
cpd_smiles: CC(=O)Nc1ncc(S(=O)(=O)Nc2ccc(C)cc2)s1
unit_tag: %
Percent Effect: 70.91
--
cpd_smiles: CC(=O)Nc1ncc(S(=O)(=O)N2CCC(C)CC2)s1
unit_tag: %
Percent Effect: -14.89
--
cpd_smiles: CC(=O)Nc1ncc(S(=O)(=O)Nc2ccc(F)cc2)s1
unit_tag: %
Percent Effect: 2.51
--
cpd_smiles: CC(=O)Nc1ncc(S(=O)(=O)Nc2ccc(F)cc2F)s1
unit_tag: %
Percent Effect: -1.674

---

# assay_notes: In vitro enzyme assay to detect hydrolysis of chlorophenol red-beta-D-[…] directly proportional to the number of Toxoplasma stably expressing beta-galactosidase
# Format: functional, organism-based, Toxoplasma gondii
# Parameters: scale not given: in the data most compounds retested in dose-response had high values
# recorded_conditions: 50 µM
Out of some 85,000 compounds screened, about 440 (0.52%) showed an effect of 50% or more. The full list was thinned out, with strong results kept by preference.

molecule: O=C(c1cccc(N2CCNC2=O)c1)N1CCOCC1
Percent Effect / %: -16.74
//
molecule: Clc1ccc(CSc2cnn[nH]2)s1
Percent Effect / %: -14.75
//
molecule: COc1ccc(CSc2nnc(N)[nH]2)c(Cl)c1
Percent Effect / %: 2.455
//
molecule: CN1Cc2ccccc2CC1=O
Percent Effect / %: -6.86
//
molecule: CN(C)C(=O)C1OCCc2ccccc21 (configuration not stated)
Percent Effect / %: -9.561
//
molecule: OC[C@@H]1CCCN1Cc1ccc(F)c2cccnc12
Percent Effect / %: 78.15
//
molecule: CCOc1cc(CNCc2ccccn2)ccc1O
Percent Effect / %: 12.08

---

# key: entry, value: Percent Effect
# assay_notes: In vitro enzyme assay to detect hydrolysis of chlorophenol red-beta-D-[…] directly proportional to the number of Toxoplasma stably expressing beta-galactosidase
# Type: functional, organism-based, Toxoplasma gondii
# Parameters: scale not given: in the data most compounds retested in dose-response had high values
# recorded_conditions: 50 µM
Screen size: about 85,000 compounds; about 440 (0.52%) showed an effect of 50% or more. This excerpt belongs to a sample that is enriched for strong results.

compound: CCN(CC(C)(C)O)C(=O)c1nccc2ccccc12
Percent Effect, %: -2.694
//
compound: CCN(CC(C)C#N)C(=O)c1ccc(Br)o1 (centres undefined)
Percent Effect, %: 96.74
//
compound: CC(C)Cc1cc(C(=O)N(C)Cc2cnccn2)on1
Percent Effect, %: 13.67
//
compound: CSCCCN1CCN(C(=O)c2ccc[nH]2)CC1
Percent Effect, %: -8.697
//
compound: C[C@@H]1CNC[C@H]1c1nc(-c2ccncc2)no1
Percent Effect, %: 1.432
//
compound: CC1CCC(N(C)C(=O)Cn2cccn2)CC1 (centres undefined)
Percent Effect, %: -1.84
//
compound: CSCc1ccc(C(=O)N(C)Cc2cnccn2)o1
Percent Effect, %: 98.35
//
compound: CC(C)OCCOCC(O)CN(C)Cc1cccnc1 (centres undefined)
Percent Effect, %: -1.887
//
compound: CCCc1nnc(NCc2cccnc2)o1
Percent Effect, %: -5.41
//
compound: Nc1cccnc1NCc1cccnc1
Percent Effect, %: 56.86
//
compound: NC(=O)CCN1C(=O)CCC1=O
Percent Effect, %: 1.954
//
compound: NS(=O)(=O)c1cccnc1NC1CCc2ccccc21 (centres undefined)
Percent Effect, %: 16.24
//
compound: CCN(CC(C)C#N)C(=O)c1sccc1C (centres undefined)
Percent Effect, %: 16.85
//
compound: N#CCC(=O)Nc1ccc(N2CCOCC2)cc1
Percent Effect, %: -1.188
